biological target: CtHtrA (Chlamydia trachomatis serovar D, UniProt P18584); construct: made in house; host or cells: E. coli BL21(DE3), pET22b; test: CtHtrA protease inhibition assay; type: biochemical; conditions: IC50 against CtHtrA, Table S2, Batch 2; control JO146
Sequence (P18584 17-497): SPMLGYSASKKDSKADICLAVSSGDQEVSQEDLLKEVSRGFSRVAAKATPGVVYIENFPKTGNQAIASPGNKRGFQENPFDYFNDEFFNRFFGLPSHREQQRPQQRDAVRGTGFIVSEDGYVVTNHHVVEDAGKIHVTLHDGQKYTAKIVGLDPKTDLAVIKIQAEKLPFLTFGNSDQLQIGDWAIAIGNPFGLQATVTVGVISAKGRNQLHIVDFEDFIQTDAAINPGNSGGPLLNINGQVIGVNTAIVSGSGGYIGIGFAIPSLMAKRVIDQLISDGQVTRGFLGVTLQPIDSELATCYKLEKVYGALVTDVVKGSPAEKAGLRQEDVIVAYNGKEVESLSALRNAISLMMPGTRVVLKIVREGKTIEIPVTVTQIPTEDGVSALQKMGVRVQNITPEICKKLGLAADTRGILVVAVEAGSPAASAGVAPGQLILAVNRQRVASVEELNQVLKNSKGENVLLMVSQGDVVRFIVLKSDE
Each entry below carries its reported IC50.
Reply numerically in µM, unit not repeated.

Illustrative cases are given below, each with its answer.
INSERT INTO assay_data (molecule, tested_system, assay_endpoint, recorded_measurement) VALUES
  ('CC(C)Oc1oc(=O)c2ccccc2c1Cl', 'CtHtrA (Chlamydia trachomatis serovar D, UniProt P18584)', 'IC50', 11.3),
  ('CCC(C)Oc1oc(=O)c2ccccc2c1Cl (racemic) [Compound 2g, (±)-3-sec-Butoxy-4-chloroisocoumarin]', 'CtHtrA (Chlamydia trachomatis serovar D, UniProt P18584)', 'IC50', 9.11),
  ('CC(C)COc1oc(=O)c2ccccc2c1Cl', 'CtHtrA (Chlamydia trachomatis serovar D, UniProt P18584)', 'IC50', 40);

# evaluate next
# query: IC50 | item CC(C)[C@H](NC(=O)OC(C)(C)C)C(=O)N1CCCC1C(=O)N[C@@H](C(C)C)P(=O)(Oc1ccccc1)Oc1ccccc1 (stereo partly shown) [JO146, reference compound] | system: CtHtrA (Chlamydia trachomatis serovar D, UniProt P18584)
60
